- measurement protocol: A CellTox Green Cytotoxicity Assay to monitor cytotoxicity in HEK293 cells - 8 hour (AID 1224884); further: on the % scale 0 is the no-effect control and ±100 the full control effect; nearly all actives have a fitted effect of over 35% in size
- particulars: CellTox Green fluorescence; series mostly up to 76.8 µM
Records with an inconclusive call do not appear. Active and inactive are the calls of the source. The call rests on the fitted dose curve; in most records, active means well fitted activation curve with a large enough effect in the repeat runs; inconclusive means weak or mixed curves; inactive means flat fitted curve, though single readings scatter.

compound	cytotoxicity increase
CC(C)(N)C#N	inactive
Clc1cc(Cl)cc(Cl)c1	inactive
O=C(O)CNC(=O)c1ccc(CO)o1	inactive
CC(C)[C@H]1CC[C@@H](C)CC1=O	inactive
C=CCCC(=O)O	inactive
CN1[C@@H]2CC[C@H]1CC(OC(=O)C(O)c1ccccc1)C2 (stereo partly drawn)	inactive
C=CCOCC(O)CO (stereo not drawn)	inactive
C=CC(C)(CCC=C(C)C)OC(=O)CC (stereo not drawn)	inactive
CC1=C(C/C=C(\C)CCC[C@H](C)CCC[C@H](C)CCCC(C)C)C(=O)c2ccccc2C1=O	inactive
CCC(C)(CCCC(C)C)OC(C)=O (stereo not drawn)	inactive
CN1CCC(=C2c3ccccc3CCc3cccnc32)CC1	inactive
Cc1ccc(C(=O)c2ccccc2)cc1	inactive
O=S(=O)(O)c1cccc(S(=O)(=O)O)c1	inactive
CCC(C)(CN(C)C)OC(=O)c1ccccc1 (stereo not drawn)	inactive
CCCCN1C=CN(C)C1	-6.47% [at 15.8 µM] (inactive)
CC(C)COC(=O)c1ccc(N)cc1	inactive
CC(C)C(=O)OC(=O)C(C)C	inactive
CCCC(=O)O[C@]1(C(=O)CC)CC[C@H]2[C@@H]3CCC4=CC(=O)CC[C@]4(C)[C@H]3[C@@H](O)C[C@@]21C	inactive
C[N+]12CCC(CC1)C(OC(=O)C(O)(c1ccccc1)c1ccccc1)C2 (stereo not drawn)	inactive
NC(=O)N[C@@H](CCC(=O)O)C(=O)O	inactive
C=CN1CCCCCC1=O	inactive
CC(C)C[C@@H](N)C(=O)O	-0.255% [at 15.8 µM] (inactive)
C=C(C)C(=O)OCCOCCOCCOCCOC(=O)C(=C)C	inactive
COc1cc2c(cc1OC)-c1cc3ccc(OC)c(OC)c3c[n+]1CC2	inactive
c1ccc2sc(SN3CCOCC3)nc2c1	inactive
CN(C)C(=O)Oc1ccc[n+](C)c1	inactive
NC(N)=NCCN1CCCCCCC1	0.959% [at 0.29 µM] (inactive)
c1coc(CNc2ncnc3nc[nH]c23)c1	inactive

====

- measurement protocol: qHTS assay to identify small molecule antagonists of the androgen receptor (AR) signaling pathway using the MDA cell line - cell viability counter screen (AID 743041; further: on the % scale 0 is the no-effect control and ±100 the full control effect; nearly all actives have a fitted effect of over 45% in size)
- particulars: MDA-kb2 viability, CellTiter-Fluor, 16 h, cells co-treated with R1881 androgen agonist; series mostly up to 70.3 µM
Results filed as inconclusive are left out. Activity calls are given as the source filed them. Calls follow the shape of the dose curve; as a rule, active = well fitted cell-killing curve with a large enough effect in the repeat runs; inconclusive = weak or mixed curves, or effect the other way; inactive = flat fitted curve, though single readings scatter.
readout kind: viability change, negative = cytotoxic

1) Cc1ccc(C(=O)c2ccc(CC(=O)O)n2C)cc1 inactive
2) Cc1ccccc1N=C(N)N=C(N)N inactive
3) Cc1cc(C)c(N=Nc2c(O)c(S(=O)(=O)O)cc3cc(S(=O)(=O)O)ccc23)cc1C -1.15% [at 8.47 µM] (inactive)
4) CC(C)(C)C(=O)c1ccccc1 inactive
5) COc1cc(-c2ccc(=O)[nH]n2)ccc1OC(F)F inactive
6) NCCCC[C@H](N[C@@H](CCc1ccccc1)C(=O)O)C(=O)N1CCC[C@H]1C(=O)O inactive

====

- measurement protocol: A CellTox Green Cytotoxicity Assay to monitor cytotoxicity in HepG2 cells - 24 hour (AID 1224878); further: on the % scale 0 is the no-effect control and ±100 the full control effect; nearly all actives have a fitted effect of over 45% in size
- particulars: CellTox Green fluorescence; series mostly up to 76.8 µM
Results filed as inconclusive are left out. Active and inactive are the calls of the source. Calls follow the shape of the dose curve; as a rule, active = well fitted activation curve with a large enough effect in the repeat runs; inconclusive = weak or mixed curves; inactive = flat fitted curve, though single readings scatter.
readout kind: cytotoxicity

molecule	readout kind	result
c1ccc2sc(SN3CCOCC3)nc2c1	cytotoxicity	inactive
CC1=CCC(O)(C(C)C)CC1 (stereo not drawn)	cytotoxicity	inactive
CC(C)c1ccc2ncccc2c1	cytotoxicity	inactive
CCN[C@@H]1C[C@H](N)[C@@H](OC2OC(CN)=CCC2N)[C@H](O)[C@H]1O[C@H]1OC[C@](C)(O)[C@H](NC)[C@H]1O (stereo partly drawn)	cytotoxicity	-2.12% [at 0.29 µM] (inactive)
CCCCCCCCCCOc1cc2c(=O)c(C(=O)OCC)c[nH]c2cc1OCC	cytotoxicity	2.18% [at 6.97 µM] (inactive)
NC(N)=NCCN1CCCCCCC1	cytotoxicity	-13.4% [at 0.29 µM] (inactive)
C[N+](C)(C)CCCCCCCCCC[N+](C)(C)C	cytotoxicity	inactive
CC(C)(C)C(=O)c1ccccc1	cytotoxicity	inactive
[Ca+2]	cytotoxicity	inactive
CC[N+](C)(CC)CCOC(=O)C1c2ccccc2Oc2ccccc21	cytotoxicity	inactive
CC(C)C(=O)OC(=O)C(C)C	cytotoxicity	inactive
CNC(=O)Nc1ccc(Cl)c(Cl)c1	cytotoxicity	inactive
Cc1ccc(-c2ncc(Cl)cc2-c2ccc(S(C)(=O)=O)cc2)cn1	cytotoxicity	inactive

====

- measurement protocol: qHTS assay to test for compound auto fluorescence at 590 nm (red) in HepG2 cell free culture (AID 720684); further: on the % scale 0 is the no-effect control and ±100 the full control effect
- particulars: cell-free medium autofluorescence, red 540/590 nm; series mostly up to 91.3 µM
Activity calls are given as the source filed them. Calls come from the whole dose curve; as a rule, active = well fitted curve in the direction sought with a large enough effect in the repeat runs; inconclusive = weak or mixed curves; inactive = flat fitted curve, though single readings scatter.
readout kind: fluorescence, % of Rose Bengal

1. COc1cc(C)nc(-n2nc(C)cc2OC)n1 -0.183% [at 18.6 µM] (inactive)
2. Nc1ccn([C@@H]2O[C@H](CO)[C@@H](O)C2(F)F)c(=O)n1 inactive
3. O=C(O)CNC(=O)c1ccc(CO)o1 inactive
4. CCCCOCCOC(=O)CCCCCCCCC(=O)OCCOCCCC inactive

====

- target or test system: Androgen receptor (Homo sapiens) (UniProt P10275)
- Sequence (P10275 whole entry, looked up): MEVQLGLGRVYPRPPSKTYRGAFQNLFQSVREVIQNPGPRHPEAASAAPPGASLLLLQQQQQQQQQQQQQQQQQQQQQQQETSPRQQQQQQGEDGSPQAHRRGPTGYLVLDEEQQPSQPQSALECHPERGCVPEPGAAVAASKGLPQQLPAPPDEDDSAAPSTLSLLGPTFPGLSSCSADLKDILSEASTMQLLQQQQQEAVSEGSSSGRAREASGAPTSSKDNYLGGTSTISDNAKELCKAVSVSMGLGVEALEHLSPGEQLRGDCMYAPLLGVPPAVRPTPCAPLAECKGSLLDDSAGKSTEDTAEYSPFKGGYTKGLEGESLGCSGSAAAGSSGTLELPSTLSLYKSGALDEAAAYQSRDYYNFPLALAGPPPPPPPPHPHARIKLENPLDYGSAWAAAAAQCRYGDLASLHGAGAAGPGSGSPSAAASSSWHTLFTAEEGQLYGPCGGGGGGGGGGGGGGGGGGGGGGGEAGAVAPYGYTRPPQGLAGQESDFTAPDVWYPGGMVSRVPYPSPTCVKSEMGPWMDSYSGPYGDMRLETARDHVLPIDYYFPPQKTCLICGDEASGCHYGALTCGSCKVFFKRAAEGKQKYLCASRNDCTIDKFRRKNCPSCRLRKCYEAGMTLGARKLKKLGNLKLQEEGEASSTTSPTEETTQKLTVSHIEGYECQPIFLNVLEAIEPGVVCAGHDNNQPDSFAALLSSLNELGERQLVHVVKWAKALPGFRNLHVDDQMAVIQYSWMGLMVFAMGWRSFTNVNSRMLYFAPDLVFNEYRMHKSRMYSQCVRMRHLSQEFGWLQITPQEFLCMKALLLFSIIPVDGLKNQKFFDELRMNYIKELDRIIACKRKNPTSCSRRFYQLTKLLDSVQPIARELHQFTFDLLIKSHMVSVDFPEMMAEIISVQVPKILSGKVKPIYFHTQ
- measurement protocol: qHTS assay to identify small molecule agonists of the androgen receptor (AR) signaling pathway in the presence of an antagonist (AID 1259381); further: nearly all actives have a fitted effect of over 15% in size
- particulars: MDA-kb2 MMTV-luciferase, AR agonist + nilutamide, 16 h; series mostly up to 42.5 µM
Activity calls are given as the source filed them. The call rests on the fitted dose curve.
Classes used: t for active, f for inactive

compound	category label
CC(=O)O[C@@]12CO[C@@H]1C[C@H](O)[C@@]1(C)C(=O)[C@H](O)C3=C(C)[C@@H](OC(=O)[C@H](O)[C@@H](NC(=O)OC(C)(C)C)c4ccccc4)C[C@@](O)([C@@H](OC(=O)c4ccccc4)[C@H]21)C3(C)C	f
O=[N+]([O-])c1cncn1CCN1CCOCC1	f
CCCCCC(C)N (centres undefined)	f
CCOc1c(N2CCOCC2)cnn(C)c1=O	f
Cc1ccc(C(=O)c2ccccc2)cc1	f
COC(=O)Nc1ccc(Cl)c(Cl)c1	f
Nc1c2c(nc3c1CCC3)CCCC2	f
Cc1ccc(-c2ccccc2C#N)cc1	f
CCOC(=O)COc1cc(-n2ncc(C(F)(F)F)c(C)c2=O)c(F)cc1Cl	f
CC(=O)N1C[C@H](O)C[C@H]1C(=O)O	f
O=C(O)CCSCCC(=O)O	f
COCCOC[C@H](CC1(C(=O)NC2CCC(C(=O)O)CC2)CCCC1)C(=O)Oc1ccc2c(c1)CCC2 (some centres undefined)	f
CNC(=O)Nc1ccc(Cl)c(Cl)c1	f
Cc1coc2ccccc2c1=O	f
CC(=O)N[C@H]1[C@H]([C@H](O)[C@H](O)CO)OC(C(=O)O)=C[C@@H]1N=C(N)N	f
CCCCCCCCCC[N+](C)(C)[O-]	f
O=S(=O)(O)c1cccc(S(=O)(=O)O)c1	f
CC(C)C1CCC(O)CC1 (centres undefined)	f
Cc1ccc(C(=O)c2ccc(CC(=O)O)n2C)cc1	f
CC1=NN(c2cccc(S(=O)(=O)O)c2)C(=O)C1	f
Cc1ccc(-c2ncc(Cl)cc2-c2ccc(S(C)(=O)=O)cc2)cn1	f
NS(=O)(=O)Cc1noc2ccccc12	f
C[N+](C)(CCOc1ccccc1)Cc1cccs1	f
CCCC(=O)O[C@]1(C(=O)CC)CC[C@H]2[C@@H]3CCC4=CC(=O)CC[C@]4(C)[C@H]3[C@@H](O)C[C@@]21C	t

====

- target or test system: Peroxisome proliferator-activated receptor gamma (Homo sapiens)
- measurement protocol: qHTS assay to identify small molecule antagonists of the peroxisome proliferator-activated receptor gamma (PPARg) signaling pathway (AID 743191); further: nearly all actives have a fitted effect of over 30% in size
- particulars: HEK293H PPARg-UAS-bla, beta-lactamase ratio, antagonist, 17 h; series mostly up to 62.6 µM
Results filed as inconclusive are left out. The source made the active and inactive calls. The call rests on the fitted dose curve. Where a SMILES comes first, the peptide text is derived from it. [ ]: non-standard residue; d: D form. pGlu = O=C1CC[C@@H](C(=O)O)N1
Classes used: 1.0 (active), 0.0 (inactive)

molecule	category label
N[C@@H](CCC(=O)O)C(=O)O	0.0
O=C(CO)[C@@H](O)[C@H](O)[C@@H](O)CO	0.0
CN1CCC(=C2c3ccccc3CCc3cccnc32)CC1	0.0
O=C(O)Cc1csc(-c2ccc(Cl)cc2)n1	0.0
CC(N)C12CC3CC(CC(C3)C1)C2 (stereo not given)	0.0
CNCCO	0.0
CC(CC=O)CC(C)(C)C (stereo not given)	0.0
CN(C)CCN(C)CCN(C)C	0.0
[Ca+2]	0.0
CCN[C@H]1C[C@H](C)S(=O)(=O)c2sc(S(N)(=O)=O)cc21	0.0
CN1[C@@H]2CC[C@H]1CC(OC(=O)C(O)c1ccccc1)C2 (stereo not given in full)	0.0
c1ccc(CCc2ccccc2)cc1	0.0
COc1cc(C(=O)OC(COCCC(C)C)CN2CCOCC2)cc(OC)c1OC (stereo not given)	0.0
CC[N+](CC)(CC(=O)Nc1c(C)cccc1C)Cc1ccccc1 (tested in a mixture with another compound)	0.0
CCNC(=O)[C@@H]1CCCN1C(=O)[C@H](CCCN=C(N)N)NC(=O)[C@H](CC(C)C)NC(=O)CNC(=O)[C@H](Cc1ccc(O)cc1)NC(=O)[C@H](CO)NC(=O)[C@H](Cc1c[nH]c2ccccc12)NC(=O)[C@H](Cc1cnc[nH]1)NC(=O)[C@@H]1CCC(=O)N1 ([pGlu]HWSYGLRP-NHEt)	0.0
O=Cc1cccc(Br)c1	0.0
O=[N+]([O-])c1ccc(/C=N\O)o1	0.0
Cc1ncc(COP(=O)(O)O)c(C=O)c1O	0.0
C[C@@H]1CCC[C@H](C)N1	0.0
O=[N+]([O-])c1cncn1CCN1CCOCC1	0.0
CC/C=C\CCOC(C)OCC (stereo not given)	0.0
O=C(c1ccccc1O)c1ccccc1O	1.0
CCCCS(=O)(=O)N[C@@H](Cc1ccc(OCCCCC2CCNCC2)cc1)C(=O)O	0.0
Cc1coc2ccccc2c1=O	0.0
COc1cc2c(cc1OC)-c1cc3ccc(OC)c(OC)c3c[n+]1CC2	0.0
